# Read-out: Human Leukocyte Antigen - DR isotype (HLADR), HLA-DRA (gene 3122)
# Measurement Protocol: BSK_3C_HLADR: BioMAP Diversity Plus: 3C Assay for Human Leukocyte Antigen - DR isotype (HLADR) Biomarker Activity (AID 2283019)
# Test Parameters: primary human endothelial cells (HUVEC); actives raise or lower the signal
Active and inactive are the calls of the source. How the source made its calls: active means hit-call score of the fitted dose curve at least 0.9, where 1 is the maximum; inactive means score below 0.9.
In this exercise, the only acceptable responses are 1 = active, -1 = inactive

{"Compound": "CCCCCCCCC(=O)NCc1ccc(O)c(OC)c1", "Qualitative Label": 1}

// query # fetch the recorded call for `BrCCBr` here
// result -1

// query # fetch the recorded call for `O=C(O)CCC(F)(C(F)(F)F)C(F)(F)F` here
// result -1

// query # fetch the recorded call for CCCCC(CC)CO[N+](=O)[O-] (stereo not given) here
// result 1

// query # fetch the recorded call for `Oc1ccc(-c2ccccc2)cc1` here
// result -1

// query # fetch the recorded call for `Nc1cccc2ccccc12` here
// result -1

// query # fetch the recorded call for `O=C(Nc1ccc2[nH]ccc2c1)c1cc2cc(F)ccc2n1Cc1cccc(F)c1` here
// result 1

// query # fetch the recorded call for `O=C(O)C(Cl)(Cl)Cl` here
// result -1

// query # fetch the recorded call for `NC(=O)O` here
// result -1
